# Study Target: Env of HIV-1 strain X1254_c3 (HIV-1)
# Experiment Summary: cell-based or functional assay
Measure Name: neutralization IC50 (µg/mL)
// return numeric value only (unit: µg/mL, not printed)

Record excerpt, results attached:
{"Binder": "γ8κ11 (antibody, V domains shown) VH: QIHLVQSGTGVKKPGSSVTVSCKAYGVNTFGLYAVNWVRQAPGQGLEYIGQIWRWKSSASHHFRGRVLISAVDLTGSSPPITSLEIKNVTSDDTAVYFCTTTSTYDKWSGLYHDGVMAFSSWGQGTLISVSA VL: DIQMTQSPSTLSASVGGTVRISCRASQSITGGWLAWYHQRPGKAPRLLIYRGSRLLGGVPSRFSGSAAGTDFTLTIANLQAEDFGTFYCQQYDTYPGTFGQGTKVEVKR", "Result": 4.14}
{"Binder": "γ59κ3 (antibody, V domains shown) VH: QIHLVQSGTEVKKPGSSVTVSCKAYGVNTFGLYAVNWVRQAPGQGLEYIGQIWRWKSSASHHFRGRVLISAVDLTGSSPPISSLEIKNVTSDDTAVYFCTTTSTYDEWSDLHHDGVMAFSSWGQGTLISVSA VL: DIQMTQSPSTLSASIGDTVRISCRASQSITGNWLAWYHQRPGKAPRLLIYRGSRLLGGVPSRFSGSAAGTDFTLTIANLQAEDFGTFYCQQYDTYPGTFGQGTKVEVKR", "Result": 3.39}
{"Binder": "γ3κ5 (antibody, V domains shown) VH: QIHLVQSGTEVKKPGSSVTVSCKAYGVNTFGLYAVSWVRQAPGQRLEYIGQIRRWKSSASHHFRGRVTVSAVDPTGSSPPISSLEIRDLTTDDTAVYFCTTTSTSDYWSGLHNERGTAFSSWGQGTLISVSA VL: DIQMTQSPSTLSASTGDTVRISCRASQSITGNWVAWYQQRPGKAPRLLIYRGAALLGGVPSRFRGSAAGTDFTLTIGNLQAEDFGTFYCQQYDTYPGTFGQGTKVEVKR", "Result": 1.72}

neutralization IC50 reading for γ52κ5 (antibody, V domains shown) VH: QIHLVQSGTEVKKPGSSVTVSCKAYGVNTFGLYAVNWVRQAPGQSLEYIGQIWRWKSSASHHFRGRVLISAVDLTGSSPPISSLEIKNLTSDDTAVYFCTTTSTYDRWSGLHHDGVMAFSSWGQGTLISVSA VL: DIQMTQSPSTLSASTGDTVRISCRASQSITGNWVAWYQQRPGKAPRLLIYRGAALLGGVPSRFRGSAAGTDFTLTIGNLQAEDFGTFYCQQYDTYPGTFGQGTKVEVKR : 0.504

γ22κ18 (antibody, V domains shown) VH: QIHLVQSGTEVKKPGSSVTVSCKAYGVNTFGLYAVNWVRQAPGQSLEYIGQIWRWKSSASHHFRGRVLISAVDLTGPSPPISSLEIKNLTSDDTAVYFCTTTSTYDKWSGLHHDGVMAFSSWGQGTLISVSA VL: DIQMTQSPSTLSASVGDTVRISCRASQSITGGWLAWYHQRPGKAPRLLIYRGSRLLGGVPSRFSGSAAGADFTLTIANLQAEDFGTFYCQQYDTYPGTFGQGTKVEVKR yielded neutralization IC50 of 1.58
